- tested-on: human PAD4 (hPAD4) (Homo sapiens (Human), UniProt Q9UM07)
- Sequence (Q9UM07 whole entry): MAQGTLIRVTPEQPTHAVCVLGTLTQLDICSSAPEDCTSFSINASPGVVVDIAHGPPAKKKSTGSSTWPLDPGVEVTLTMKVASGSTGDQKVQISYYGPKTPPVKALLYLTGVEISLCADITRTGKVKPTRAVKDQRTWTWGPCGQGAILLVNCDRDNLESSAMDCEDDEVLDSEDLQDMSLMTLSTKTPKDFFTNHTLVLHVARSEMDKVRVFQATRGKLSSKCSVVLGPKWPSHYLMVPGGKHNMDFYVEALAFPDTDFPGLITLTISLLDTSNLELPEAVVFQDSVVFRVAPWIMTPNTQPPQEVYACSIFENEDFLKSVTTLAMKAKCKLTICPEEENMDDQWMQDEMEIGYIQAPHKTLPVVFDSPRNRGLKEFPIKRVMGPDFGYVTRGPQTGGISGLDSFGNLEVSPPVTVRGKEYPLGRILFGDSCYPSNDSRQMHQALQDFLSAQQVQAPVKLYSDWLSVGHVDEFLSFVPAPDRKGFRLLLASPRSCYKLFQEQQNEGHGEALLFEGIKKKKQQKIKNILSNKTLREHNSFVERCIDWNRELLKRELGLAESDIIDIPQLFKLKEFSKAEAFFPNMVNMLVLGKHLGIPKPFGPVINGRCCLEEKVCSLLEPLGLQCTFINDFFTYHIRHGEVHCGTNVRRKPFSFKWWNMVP
- experiment-summary: RFMS Human PAD4 Functional Assay 1
- Type: biochemical
- experimental-setup: RFMS assay 1; 5 nM hPAD4, 250 μM BAEE substrate, 50 μM calcium, 37° C.
pIC50: −log10 of the molar value.
observable: pIC50

[1] Cc1c(-c2cc3ccc(-c4ccc(N5CCCC5=O)cc4)nc3n2CC2CC2)nn2cc(C(=O)N3CC4CCC3[C@@H]4N)cc(F)c12 (stereo partly drawn)
[2] COc1cc(C(=O)N2C[C@H](N)C[C@@H](F)C2)cn2nc(-c3cc4ccc(-c5ccccc5CO)cc4n3CC3CC3)c(C)c12
[3] COC(=O)N1CCC(c2cccc3cc(-c4nn5cc(C(=O)N6CCC[C@@H](N)C6)ccc5c4C)n(CC4CC4)c23)CC1
Lookup: Highest to lowest pIC50: rank the entries shown above. Output spec: labels arranged per the requested ranking.
Found: 3, 1, 2

###

- tested-on: human PAD4 (hPAD4) (Homo sapiens (Human))
- experiment-summary: RFMS Human PAD4 Functional Assay 1
- experimental-setup: RFMS assay 1; 5 nM hPAD4, 250 μM BAEE substrate, 50 μM calcium, 37° C.
observable: IC50 (nM)

Cc1c(-c2cc3cccc(OC[C@@H]4CCC(=O)N4)c3n2CC2CC2)nn2cc(C(=O)N3CCC[C@@H](N)C3)ccc12	50
COc1cc(C(=O)N2C[C@H](N)C[C@@H](F)C2)cn2nc(-c3cc4cccc(C5CCN(C(=O)C6CC(O)C6)CC5)c4n3CC3CC3)c(C)c12 (single isomer, unassigned) [Example 390]	5
Cc1c(-c2cc3ccc(-c4cccc5[nH]ncc45)nc3n2CC2CC2)nn2cc(C(=O)N3CC4CCC3[C@@H]4N)ccc12 (stereo partly drawn)	20
COc1cc(C(=O)N2CCC[C@@H](N)C2)cn2nc(-c3cc4ccnc(OCCn5ccnc5C)c4n3CC3CC3)c(C)c12	1280
Cc1c(-c2cc3ccnc(OCCn4cncn4)c3n2CC2CC2)nn2cc(C(=O)N3C[C@H](N)C[C@@H](F)C3)ccc12	430

[A] COc1cc(C(=O)N2C[C@H](N)C[C@@H](F)C2)cn2nc(-c3cc4ccc(-c5ccn6c(C)nnc6c5)nc4n3CC3CC3)c(C)c12
[B] COc1cc(C(=O)N2CCC[C@@H](N)C2)cn2nc(-c3cc4ccc(-c5ccc(NC(C)=O)nc5)cc4n3CC3CC3)c(C)c12
Lookup: Return label of the item with the larger IC50. Candidates: A , B . State your choice using its label.
Found: B
(B: 180 nM, A: 91 nM)

[1] Cc1c(-c2cc3ccc(N4CCC(C(=O)N5CCCC5)CC4)cc3n2CC2CC2)nn2cc(C(=O)N3CCC[C@@H](N)C3)ccc12
[2] Cc1c(-c2cc3ccc(-c4ccc(C(N)=O)c(F)c4)nc3n2CC2CC2)nn2cc(C(=O)N3CCC[C@@H](N)C3)cc(F)c12
Lookup: Of the two listed items, 1 and 2 , which carries the larger IC50 figure? Bench note: the answer is the label of the chosen record.
Found: 1

[a] COc1cc(C(=O)N2CC3CCC2[C@@H]3N)cn2nc(-c3cc4ccc(Cl)nc4n3CC3CC3)c(C)c12 (stereo partly drawn)
[b] COc1cc(C(=O)N2C[C@H](N)C[C@@H](F)C2)cn2nc(-c3cc4cccc(C5CCN(C(=O)C6CC(O)(C(F)(F)F)C6)CC5)c4n3CC3CC3)c(C)c12 (mixture of isomers)
[c] COc1cc(C(=O)N2C[C@H](N)C[C@@H](F)C2)cn2nc(-c3cc4ccc(-c5cccc(NS(C)(=O)=O)c5)cc4n3CC3CC3)c(C)c12
[d] Cc1c(-c2cc3ccc(-c4ccc(O)c(F)c4)nc3n2CC2CC2)nn2cc(C(=O)N3CC4CCC3[C@@H]4N)ccc12 (stereo partly drawn)
[e] Cc1c(-c2cc3cccc(C4CCN(C(=O)[C@H]5CCC[C@@H](O)C5)CC4)c3n2CC2CC2)nn2cc(C(=O)N3CCC[C@@H](N)C3)ccc12
Lookup: Rank entries according to their IC50, from the largest number down. Show the ranking through the labels, in the order asked for.
Found: c, a, e, b, d

[I] Cc1c(-c2cc3ccnc(OCC4CNC(=O)C4)c3n2CC2CC2)nn2cc(C(=O)N3C[C@H](N)C[C@@H](F)C3)ccc12 (single isomer, unassigned; isomer 1) [Example 614]
[II] CC(=O)N1CCC(c2cccc3cc(-c4nn5cc(C(=O)N6CCC[C@@H](N)C6)ccc5c4C)n(CC4CC4)c23)CC1
Lookup: Hello, I am sorting some records. Could you say if I or II has the smaller IC50 value? Your answer should be the label of the entry you select.
Found: I
(I: 60 nM, II: 390 nM)
